Test system: SNB-19
assay.protocol: NCI tumour cell line growth inhibition, 48 h
Activity calls are given as the source filed them. Rule as the data show it: active = GI50 up to about 1.1 µM and inactive = higher.
metric: GI50

Which GI50 value belongs to `O=C(c1cc2c(c3ccccc13)NC1(CCCCC1)N=C2C(F)(F)F)C(F)(F)F` ? 5.4 µM (inactive)

For `CC(C)(C)c1cc2ccc(C(N)=O)cc2c(=O)[nH]1` then? > 100 µM (inactive)

For `CC1=C(C(=O)Nc2ccccc2)C(c2cccc3ccccc23)C(C(=O)Nc2ccccc2)=C(C)N1` then? 16.4 µM (inactive)

For `CCc1cc(-c2nsc(=O)o2)c(S(=O)(=O)CC)s1` then? 77.8 µM (inactive)

For C[C@H]1O[C@@H](C(C)(C)C)OC(=O)[C@@H]1C(OC(=O)c1ccccc1)c1cccc2ccccc12 (stereo partly specified) then? > 100 µM (inactive)

// moving on: another record for GI50
Which GI50 value belongs to CC1=C(/C=C/Cl)CC(Cl)C(C)(Cl)C1 (stereo unspecified) ? > 100 µM (inactive)

----------
System: COLO 205
assay.protocol: NCI tumour cell line growth inhibition, 48 h
Active and inactive are the calls of the source. Rule as the data show it: active = GI50 up to about 1.1 µM and inactive = higher.
Select the matching outcome among t (active), f (inactive)

Example results:
Per the assay record, what outcome was assigned to `Cc1[nH]nc(C(=O)N/N=C/c2ccccc2Cl)c1/N=N\N(C)C` ? f

For `COc1ccc2c(C)cc(N/N=C/c3ccc(C)s3)nc2c1` then? f

For `O=C(NCCCCN(CCCNC(=O)C(F)(F)F)Cc1ccccc1)C(F)(F)F` then? f

Continuing:
Per the assay record, what outcome was assigned to COc1ccc(C2SC(=N)Nc3c2c(C)nn3C(=O)c2ccc(Cl)cc2)cc1OC (stereo not drawn) ? f

For `N#CCC(=O)N1CCCOCCC1` then? f

For COC(=O)C1=C(c2cc(OC)c(OC)c(OC)c2)OC(c2cc(OC)c(OC)c(OC)c2)C1COC(C)=O (stereo not drawn) then? f

For `N=NCC(=O)OC(COCc1ccccc1)COCc1ccccc1` then? f

For `O=C(NNCc1ccc(Cl)cc1)Nc1cccc2ccccc12` then? f

For COC(CC1(CCNc2ccccc2)C(=O)N(COCC[Si](C)(C)C)c2ccccc21)OC (stereo not drawn) then? f

For `Cc1nnc2n1N=C(c1cc(F)c(Cl)cc1Cl)/C(=C/c1ccc3c(c1)OCO3)S2` then? f

----------
This section presents compounds with their documented GI50 values.
Tested on: SW-620
assay.protocol: NCI tumour cell line growth inhibition, 48 h
Calls of active or inactive are those of the source. Cut-off read from the data, not from the text of the source: active = GI50 up to about 1.1 µM and inactive = higher.

Check out these entries, answers already filled in.
Which GI50 value belongs to `CCCCc1ccc(-n2sc3ncccc3c2=O)cc1` ? 13.9 µM (inactive)

For `N#Cc1c(N2CCCC2)nsc1NCc1ccccc1` then? > 100 µM (inactive)

For COC(=O)C1CC2c3c(c4ccccc4n3C)CC(C1=O)N2C (configuration not stated) then? 34.8 µM (inactive)

For CCOP(=O)(OCC)C1CC(C)OC1=O (configuration not stated) then? > 100 µM (inactive)

For c1cc2ccc1C1NCCCN1CCN1CCCNC1c1ccc(cc1)C1NCCCN1CCN1CCCNC21 (configuration not stated) then? 18.5 µM (inactive)

For CC1CC2OC(=N)C1(C#N)C2(C#N)C#N (configuration not stated) then? 18.2 µM (inactive)

For `COc1cc(-c2cc(=O)c3cc4c(cc3[nH]2)OCO4)cc(OC)c1O` then? > 10 µM (inactive)

For COc1ccc(C2c3cc4c(cc3OC(Nc3ccccc3)C2C)OCO4)cc1 (configuration not stated) then? 64.3 µM (inactive)

Continuing:
Which GI50 value belongs to `COc1ccc(-c2cc(=O)c3cc(O)ccc3o2)c(OC)c1OC` ? 40.8 µM (inactive)

For `CC(C)(C)N1C=[N+](C(C)(C)C)CC1` then? > 100 µM (inactive)

For CCCCCCCCCCCCCCC(C(=O)[O-])[n+]1ccccc1 (configuration not stated) then? > 100 µM (inactive)

For `O=C(/C=C/c1cc(O)c(O)cc1O)OCCc1ccccc1` then? 5.19 µM (inactive)
